Recorded values, source ChEMBL document CHEMBL1131318.

Experiment: HPLC capacity factor (k') (artificial membrane chromatography)
Assay type: ADME
Binary classification by Log relative k', with 0.4 as an inclusive lower bound for YES; all other cases are NO.

{"molecule": "O=C(O)CCCCCCCNC(=O)c1ccccc1", "class": "NO"}
{"molecule": "O=C(O)CCCCCCCNC(=O)c1ccccc1Cl", "class": "NO"}
{"molecule": "O=C(O)CCCCCCCNC(=O)c1cc([N+](=O)[O-])ccc1Cl", "class": "NO"}

Consider now this further molecule.
Is the recorded value of Log relative k' equal to or greater than 0.4 for this molecule? O=C(O)CCNC(=O)c1ccccc1O NO

###

Experiment: HPLC capacity factor (k') (artificial membrane chromatography)
Assay type: ADME
assay-endpoint: Log relative k'
Could you keep your reply to the number by itself?

# annotated cases, reported Log relative k' shown
{"test-smiles": "O=C(O)CCCCCCCNC(=O)c1ccccc1Br", "assay-endpoint": "Log relative k'", "quantitative-result": 0.24}
{"test-smiles": "O=C(O)CCCCCCCNC(=O)c1cc(O)cc(O)c1", "assay-endpoint": "Log relative k'", "quantitative-result": -0.06}
{"test-smiles": "O=C(O)CCCCCCCCCCNC(=O)c1ccccc1O", "assay-endpoint": "Log relative k'", "quantitative-result": 1.88}

Report Log relative k' for O=C(O)CCCCCCCNC(=O)c1cccs1 please. 0.9

Suppose we examine the compound O=C(O)CCCCCCCNC(=O)c1c(F)c(F)c(F)c(F)c1F ; what Log relative k' value has been reported? 0.41

Returns the measured Log relative k' for the input compound. Input: COc1ccccc1C(=O)NCCCCCCCC(=O)O 0.33

###

Test: HPLC capacity factor (k') (artificial membrane chromatography)
Type: ADME
Recorded Log relative k' values for a group of compounds are listed next.
The answer should be a number; do not append a unit.

Illustrative cases are given below, each with its answer.
{"compound": "Cc1ccccc1C(=O)NCCCCCCCC(=O)O", "Log relative k'": 0.45}
{"compound": "O=C(O)CCCCNC(=O)c1ccccc1O", "Log relative k'": -0.18}
{"compound": "O=C(O)CCCCCCNC(=O)c1ccccc1O", "Log relative k'": 0.37}
{"compound": "O=C(O)CCCCCCCNC(=O)c1ccccc1OC(F)(F)F", "Log relative k'": -0.64}
{"compound": "COc1cc([N+](=O)[O-])ccc1C(=O)NCCCCCCCC(=O)O", "Log relative k'": -0.55}
{"compound": "Cc1ccc(C(=O)NCCCCCCCC(=O)O)c(O)c1", "Log relative k'": 1.05}
{"compound": "O=C(O)CCCCCCCNC(=O)c1cccc(F)c1", "Log relative k'": 0.29}
{"compound": "O=C(O)CCCCCCCNC(=O)c1cccnc1Cl", "Log relative k'": -0.53}

Please report the recorded Log relative k' for O=C(O)CCCCCCCNC(=O)c1ccc(Br)cc1 . 0.76

Item O=C(O)CCCCCCCNC(=O)c1ccc([N+](=O)[O-])cc1O has what recorded Log relative k'? 1.11

Item O=C(O)CCCCCCCNC(=O)C1CCCN1 (centres undefined) has what recorded Log relative k'? -0.28

Given the entry O=C(O)CCCCCNC(=O)c1ccc(Cl)cc1O , report its measured Log relative k'. 0.26

Recorded Log relative k' for O=C(O)CCCCCCCNC(=O)c1cc(Cl)ccc1O , please? 0.81

What measured Log relative k' goes with Cc1ccc(O)c(C(=O)NCCCCCCCC(=O)O)c1 ? 1.03

// lookup Log relative k' for O=C(O)CCCCCCCCCNC(=O)c1ccccc1O 1.43

For O=C(O)CCCCCCCNC(=O)c1ccccc1F , what is its reported Log relative k'? 0.11

Item O=C(O)CCCCCCCCNC(=O)C/C=C/c1ccccc1 has what recorded Log relative k'? 0.69

State the recorded Log relative k' for this entry: O=C(O)CCCCCCCNC(=O)c1cc2ccccc2oc1=O 0.81

What value of Log relative k' has been recorded for this entry: COc1ccc(C(=O)NCCCCCCCC(=O)O)c(O)c1 0.92

Look at this compound and give its reported Log relative k'. O=C(O)CCCCCCCNC(=O)c1ccc(Cl)cc1 0.65

Give the measured Log relative k' of O=C(O)CCCCCCCNC(=O)Cc1ccccc1O . 0.12

Which measured Log relative k' value corresponds to O=C(O)CCCCCCCCCCCNC(=O)C/C=C/c1ccccc1 ? 2.29

If you can, please state the reported Log relative k' value of COc1ccccc1/C=C/CC(=O)NCCCCCCCCC(=O)O . 0.89

Suppose we examine the compound O=C(O)CCCCCCCNC(=O)c1ccc(F)cc1 ; what Log relative k' value has been reported? 0.23

Could you tell me which Log relative k' is on file for O=C(O)CCCCCCCNC(=O)c1cccc(O)c1 ? 0

I would be grateful if you could share the reported Log relative k' for O=C(O)CCCCCCNC(=O)C/C=C/c1ccccc1 . 0.36
